Target: Cin5 (UniProt P40917)
Sequence: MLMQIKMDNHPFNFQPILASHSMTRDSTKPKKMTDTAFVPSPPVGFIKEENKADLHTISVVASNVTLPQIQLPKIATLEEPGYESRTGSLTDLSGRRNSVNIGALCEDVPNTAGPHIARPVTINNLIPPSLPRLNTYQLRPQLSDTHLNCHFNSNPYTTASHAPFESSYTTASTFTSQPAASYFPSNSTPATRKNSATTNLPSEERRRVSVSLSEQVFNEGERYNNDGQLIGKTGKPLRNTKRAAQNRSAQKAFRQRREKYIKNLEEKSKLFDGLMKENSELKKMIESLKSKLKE
Assay: PBM E-score (8-mer binding enrichment) (E-score (-0.5 to 0.5)); higher = stronger / more preferred TF binding
Conditions: protein concentration: 100 nM; construct: GST-full length
Over roughly 33,000 sequences, “E-score (-0.5 to 0.5)” has its median near -0.0059; the highest 2% begin near 0.26. Many of the other results were omitted from the sample, so the highest values are more common in it than they were.
RESULT TYPE: PBM E-score
Respond using a number only.

Some sequences with recorded PBM E-score:
CCTTGCAC	-0.0869
AATCTACC	0.138
TAAGCTTA	0.372
ATGTATCG	0.232
CCCTATTA	-0.0143
CCAGTTAA	0.134
CTTAGATC	-0.0574
GGTAATCA	0.289
AGTAATGA	0.13
ATTAATCG	0.228

Q: GET /values?readout=PBM E-score&item= ACCTTAGA
Ans: 0.0107

Q: What value of PBM E-score has been recorded for this entry: GCTACGGA
Ans: -0.165

Q: Quick check: PBM E-score of GCCACATA ?
Ans: 0.064

Q: Which PBM E-score reading was recorded for the sequence ACGGCGTC ?
Ans: -0.0496
